system: Phakopsora pachyrhizi; test: Test A: test suspension sprayed on soybean seedlings one day before inoculation with Phakopsora pachyrhizi spores (Asian soybean rust), visual disease rating; type: in vivo; conditions: 10 ppm test suspension, 100 = 100% disease control, 0 = no control
This section presents molecules with their documented Test A rating (disease control) values.
The answer is to be given in %; state only the numeric part.

Task: // query Test A rating (disease control) value for entry N#CCNC(=O)c1cnn(Cc2ccc(OCC3(C(F)(F)F)OCCO3)cc2)c1
Output: 31

Task: // query Test A rating (disease control) value for entry CCOC(=O)NCc1ccc(O/C=C(\OCC)C(F)(F)F)cc1
Output: 0

Task: // query Test A rating (disease control) value for entry CCO/C(=C\Oc1ccc(Cn2cnc(C(=O)OC)c2)cc1)C(F)(F)F
Output: 99

Task: // query Test A rating (disease control) value for entry C#CCOC(=O)c1cnn(Cc2ccc(OCC3(C(F)(F)F)OCCO3)cc2)c1
Output: 100

Task: // query Test A rating (disease control) value for entry CCO/C(=C\Oc1cccc(Cn2cc(C(=O)OCCCCl)cn2)c1)C(F)(F)F
Output: 100

Task: // query Test A rating (disease control) value for entry CCO/C(=C\Oc1ccc(Cn2ccc(C(=O)OCC3CCC3)n2)cc1)C(F)(F)F
Output: 100

Task: // query Test A rating (disease control) value for entry CCOC(=O)c1csc(Cc2ccc(OCC3(C(F)(F)F)OCCO3)cc2)n1
Output: 79

Task: // query Test A rating (disease control) value for entry CCO/C(=C\Oc1cccc(Cn2cc(C(=O)OC(C)C)cn2)c1)C(F)(F)F
Output: 100
